- test.system: Acetylcholinesterase (Electrophorus electricus)
measured.parameter: pIC50
Answers are plain numbers, as −log10 of the molar value.

Check out these entries, answers already filled in.
1) CNC(=O)C1CCc2nc3cc(Br)ccc3c(N)c2C1 (stereo not given) :: 7.54
2) Cn1cc(-c2ccc3c(N)c4c(nc3c2)CCC(C(=O)NCCc2ccccc2)C4)cn1 (stereo not given) :: 6.72
3) Cn1cc(-c2ccc3c(N)c4c(nc3c2)CCC(C(=O)NCCCc2ccccc2)C4)cn1 (stereo not given) :: 7.24
4) Nc1c2c(nc3ccccc13)CCC(C(=O)NCCc1ccccc1)C2 (stereo not given) :: 7.77

Consider the record given below.
Inquiry: Please report the measured pIC50 for Nc1c2c(nc3cc(Br)ccc13)CCC(C(=O)NCc1ccccc1)C2 (stereo not given)
Reply text: 7.47

====

Kindly state IC50 for each of the entries shown.
- test.system: Cholinesterase (Equus caballus, UniProt P81908)
- Sequence (P81908 whole entry): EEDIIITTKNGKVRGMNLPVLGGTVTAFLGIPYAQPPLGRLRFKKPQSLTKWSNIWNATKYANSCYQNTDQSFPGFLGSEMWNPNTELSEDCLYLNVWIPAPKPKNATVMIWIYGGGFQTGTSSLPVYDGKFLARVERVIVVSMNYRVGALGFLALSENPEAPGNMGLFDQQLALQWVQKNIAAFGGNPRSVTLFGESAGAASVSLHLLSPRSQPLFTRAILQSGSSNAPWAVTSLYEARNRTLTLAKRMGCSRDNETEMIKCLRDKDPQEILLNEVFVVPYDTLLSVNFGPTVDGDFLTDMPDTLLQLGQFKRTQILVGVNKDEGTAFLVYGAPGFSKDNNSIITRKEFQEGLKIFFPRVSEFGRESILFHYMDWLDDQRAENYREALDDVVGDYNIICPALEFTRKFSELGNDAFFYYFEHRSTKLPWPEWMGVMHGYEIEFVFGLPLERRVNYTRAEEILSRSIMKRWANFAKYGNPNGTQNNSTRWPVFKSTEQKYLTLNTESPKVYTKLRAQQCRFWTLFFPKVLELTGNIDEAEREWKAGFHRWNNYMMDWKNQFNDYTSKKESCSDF
A bare number is not enough; add the unit after it.

Check out these entries, answers already filled in.
1) Nc1c2c(nc3ccccc13)CCC(C(=O)NCCc1ccccc1)C2 (stereo unspecified) :: 4.05 µM
2) Nc1c2c(nc3ccccc13)CCC(C(=O)NCc1ccccc1)C2 (stereo unspecified) :: 10.8 µM
3) Cn1cc(-c2ccc3c(N)c4c(nc3c2)CCC(C(=O)NCc2ccccc2)C4)cn1 (stereo unspecified) :: 2.26 µM

Consider the following items and state reported IC50 for each.
1. Nc1c2c(nc3cc(-c4cncnc4)ccc13)CCC(C(=O)NCCCc1ccccc1)C2 (stereo unspecified)
2. Nc1c2c(nc3ccccc13)CCC(C(=O)NCCCc1ccccc1)C2 (stereo unspecified)
3. Cn1cc(-c2ccc3c(N)c4c(nc3c2)CCC(C(=O)NCCc2ccccc2)C4)cn1 (stereo unspecified)

Reply text:
["18 µM", "3.68 µM", "10.6 µM"]

Consider the following items and state reported IC50 for each.
1. Nc1c2c(nc3cc(Br)ccc13)CCC(C(=O)NCCCc1ccccc1)C2 (stereo unspecified)
2. Cn1cc(-c2ccc3c(N)c4c(nc3c2)CCC(C(=O)NCCCc2ccccc2)C4)cn1 (stereo unspecified)
3. Cn1nccc1NC(=O)C1CCc2nc3cc(Br)ccc3c(N)c2C1 (stereo unspecified)
4. Nc1c2c(nc3cc(Br)ccc13)CCC(C(=O)NCc1ccccc1)C2 (stereo unspecified)

Reply text:
5.11 µM
2.77 µM
20.9 µM
10.2 µM

Inquiry: Please report the measured IC50 for Nc1c2c(nc3cc(Br)ccc13)CCC(C(=O)NCCc1ccccc1)C2 (stereo unspecified)
Reply text: 7.17 µM

====

Lab note: IC50 readings collected with Acetylcholinesterase (Electrophorus electricus, UniProt O42275) for the following molecules.
Sequence (O42275 whole entry): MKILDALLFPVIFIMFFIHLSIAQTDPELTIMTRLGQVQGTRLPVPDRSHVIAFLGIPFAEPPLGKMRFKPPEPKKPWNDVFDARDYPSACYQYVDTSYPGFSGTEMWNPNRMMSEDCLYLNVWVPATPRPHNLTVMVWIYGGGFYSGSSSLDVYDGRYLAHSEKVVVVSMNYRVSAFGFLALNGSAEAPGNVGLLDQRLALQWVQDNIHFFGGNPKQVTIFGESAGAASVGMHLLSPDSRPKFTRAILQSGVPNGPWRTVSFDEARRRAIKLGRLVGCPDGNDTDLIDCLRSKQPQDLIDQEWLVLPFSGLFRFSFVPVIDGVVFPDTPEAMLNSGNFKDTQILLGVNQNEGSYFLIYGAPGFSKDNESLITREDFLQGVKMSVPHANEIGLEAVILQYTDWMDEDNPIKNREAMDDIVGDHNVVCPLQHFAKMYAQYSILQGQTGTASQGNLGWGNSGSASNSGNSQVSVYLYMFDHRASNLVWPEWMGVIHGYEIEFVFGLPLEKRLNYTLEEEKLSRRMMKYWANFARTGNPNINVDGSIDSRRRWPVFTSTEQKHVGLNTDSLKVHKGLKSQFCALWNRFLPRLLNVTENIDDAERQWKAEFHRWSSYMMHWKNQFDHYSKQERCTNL
Numbers only, in nM.

Consider the following items and state reported IC50 for each.
1. Nc1c2c(nc3cc(-c4cncnc4)ccc13)CCC(C(=O)NCCCc1ccccc1)C2 (stereo not drawn)
2. Cn1cc(-c2ccc3c(N)c4c(nc3c2)CCC(C(=O)NCc2ccccc2)C4)cn1 (stereo not drawn)
3. Cn1nccc1NC(=O)C1CCc2nc3cc(Br)ccc3c(N)c2C1 (stereo not drawn)
4. Nc1c2c(nc3cc(Br)ccc13)CCC(C(=O)NCCCc1ccccc1)C2 (stereo not drawn)
5. Nc1c2c(nc3ccccc13)CCC(C(=O)NCc1ccccc1)C2 (stereo not drawn)
6. Nc1c2c(nc3ccccc13)CCC(C(=O)NCCCc1ccccc1)C2 (stereo not drawn)

Reply text:
1. 40.8
2. 191
3. 17.7
4. 7.14
5. 37.2
6. 5.17

Consider the following items and state reported IC50 for each.
1. Nc1c2c(nc3cc(Br)ccc13)CCC(C(=O)NCCc1ccccc1)C2 (stereo not drawn)
2. NNC(=O)C1CCc2nc3ccccc3c(N)c2C1 (stereo not drawn)

Reply text:
1. 24.1
2. 13
